target-system: T1, ZFP SBS#550 (synthetic)
T1 chain: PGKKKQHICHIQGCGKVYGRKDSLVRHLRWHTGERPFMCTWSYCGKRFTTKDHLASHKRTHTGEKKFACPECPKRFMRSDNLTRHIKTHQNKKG
method-notes: EMSA
applied-conditions: tags: MBP fusion
readout-kind: Kd

binder="GAGTGTGTGA (dsDNA) DNA 1: GAGTGTGTGA DNA 2: TCACACACTC" readout_value="20 nM"
